assay-system: human adenosine A2A receptors (Homo sapiens, UniProt P29274)
Sequence (P29274 whole entry): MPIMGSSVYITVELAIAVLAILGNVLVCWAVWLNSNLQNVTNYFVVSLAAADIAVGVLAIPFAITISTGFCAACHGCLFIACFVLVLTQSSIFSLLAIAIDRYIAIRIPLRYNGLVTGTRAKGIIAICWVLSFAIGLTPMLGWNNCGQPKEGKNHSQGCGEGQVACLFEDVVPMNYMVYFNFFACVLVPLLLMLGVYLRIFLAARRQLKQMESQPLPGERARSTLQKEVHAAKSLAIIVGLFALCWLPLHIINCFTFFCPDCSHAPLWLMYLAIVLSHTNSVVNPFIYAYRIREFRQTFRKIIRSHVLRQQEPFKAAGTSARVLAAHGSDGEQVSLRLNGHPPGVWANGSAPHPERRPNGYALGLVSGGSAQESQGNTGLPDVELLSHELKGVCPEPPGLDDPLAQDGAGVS
method-summary: Adenosine A2A receptor radioligand binding assay ([125I]-ZM241385 competition, membranes of HEK293 cells)
setup-conditions: IC50 2.M, second measurement; [125I]-ZM241385 20000 cpm, 60 min, 37°C
Reported values of pIC50 for individual entries
// pIC50 is dimensionless: -log10 of concentration (M)

Here's what some known entries look like.
mol-smiles | numeric-value
O=c1c(-c2ccc(O)cc2)coc2cc(O)cc(O)c12 | 5.28
O=c1c(O)c(-c2ccc(O)cc2)oc2cc(O)cc(O)c12 | 5.46
COc1c(O)cc2oc(-c3ccc(O)cc3)cc(=O)c2c1O | 5.49
COc1cc2oc(-c3ccc(O)cc3)cc(=O)c2c(O)c1OC | 5.68

Entry under test: O=C1C[C@@H](c2ccc(O)cc2)Oc2cc(O)cc(O)c21 . Its pIC50 was 4.64

Sample O=c1c(O)c(-c2ccccc2)oc2cc(O)cc(O)c12 ; pIC50 observed: 6.08

For record O=c1cc(-c2ccc(O)cc2)oc2cc(O)cc(O)c12 the listed pIC50 is 4.47

Consider COc1ccc(-c2cc(=O)c3c(OC)c(OC)c(OC)cc3o2)cc1 . Its measured pIC50 is 5.89

Query O=c1c(O)c(-c2ccc(O)c(O)c2)oc2cc(O)cc(O)c12 yields pIC50 of 5.96

response.value for O=c1cc(-c2ccccc2)oc2ccccc12 (field: pIC50) = 5.25

src = patent EP4631502A1
